For each entry below, report its inhibition at 10 µM value.
- Organism: Mus musculus
- Assay Remarks: Percent inhibition of anti-CD3 mAb stimulated interleukin-5 release from […] by 10 uM
- Assay type: functional
Value expressed in %; do not type the unit.

Identify inhibition at 10 µM associated with the compound Cc1c(CC(=O)Nc2ccncc2)c2cc(F)ccc2n1Cc1ccccc1 41

Identify inhibition at 10 µM associated with the compound COc1ccc2c(c1)c(CC(=O)Nc1ccncc1)c(C)n2Cc1ccc(F)cc1 22

Identify inhibition at 10 µM associated with the compound O=C(Cc1cn(Cc2ccccc2)c2ccc(Cl)cc12)Nc1ccncc1 49

Identify inhibition at 10 µM associated with the compound O=C(Cc1cn(Cc2ccc(F)cc2)c2ccccc12)Nc1ccncc1 100

Identify inhibition at 10 µM associated with the compound O=C(Cc1cn(Cc2ccc(F)cc2)c2ccc(Cl)cc12)Nc1ccncc1 54

Identify inhibition at 10 µM associated with the compound O=C(CCCc1cn(Cc2ccc(F)cc2)c2ccccc12)Nc1ccncc1 42

Identify inhibition at 10 µM associated with the compound O=C(Cc1cn(Cc2ccccc2)c2ccc(F)cc12)Nc1ccncc1 48

Identify inhibition at 10 µM associated with the compound COc1ccc(CCN2CCC(Nc3nc4ccccc4n3Cc3ccc(F)cc3)CC2)cc1 [ASTEMIZOLE] 74

Identify inhibition at 10 µM associated with the compound COc1ccc2[nH]cc(CCC(=O)Nc3ccncc3)c2c1 26

Identify inhibition at 10 µM associated with the compound O=C(Cc1cn(Cc2ccc(F)cc2)c2cc(O)ccc12)Nc1ccncc1 37

* * *

For each entry below, report its inhibition at 10 µM value.
- Species: Mus musculus
- Assay Remarks: Percent inhibition of anti-CD3 mAb stimulated interleukin-5 release from […] by 10 uM
- Assay type: functional
Value expressed in %; do not type the unit.

Identify inhibition at 10 µM associated with the molecule CC(C)c1ccc2c(c1)c(CC(=O)Nc1ccncc1)cn2Cc1ccc(F)cc1 23

Identify inhibition at 10 µM associated with the molecule O=C(CCc1cn(Cc2ccc(F)cc2)c2ccc(Cl)cc12)Nc1ccncc1 41

Identify inhibition at 10 µM associated with the molecule Cc1c(CC(=O)Nc2ccncc2)c2cc(Cl)ccc2n1Cc1ccc(F)cc1 26

Identify inhibition at 10 µM associated with the molecule COc1ccc2c(c1)c(CC(=O)Nc1ccncc1)cn2-c1ccc(F)cc1 22

Identify inhibition at 10 µM associated with the molecule Cc1c(CC(=O)Nc2ccncc2)c2cc(C(C)C)ccc2n1Cc1ccccc1 34

Identify inhibition at 10 µM associated with the molecule O=C(Cc1cn(-c2ccc(F)cc2)c2ccccc12)Nc1ccncc1 48

Identify inhibition at 10 µM associated with the molecule CC(C)c1ccc2[nH]cc(CCC(=O)Nc3ccncc3)c2c1 28

Identify inhibition at 10 µM associated with the molecule O=C(CCc1c[nH]c2ccc(F)cc12)Nc1ccncc1 25
